Target: Trypanothione reductase (Leishmania infantum)
Sequence (A4HSF7 whole entry): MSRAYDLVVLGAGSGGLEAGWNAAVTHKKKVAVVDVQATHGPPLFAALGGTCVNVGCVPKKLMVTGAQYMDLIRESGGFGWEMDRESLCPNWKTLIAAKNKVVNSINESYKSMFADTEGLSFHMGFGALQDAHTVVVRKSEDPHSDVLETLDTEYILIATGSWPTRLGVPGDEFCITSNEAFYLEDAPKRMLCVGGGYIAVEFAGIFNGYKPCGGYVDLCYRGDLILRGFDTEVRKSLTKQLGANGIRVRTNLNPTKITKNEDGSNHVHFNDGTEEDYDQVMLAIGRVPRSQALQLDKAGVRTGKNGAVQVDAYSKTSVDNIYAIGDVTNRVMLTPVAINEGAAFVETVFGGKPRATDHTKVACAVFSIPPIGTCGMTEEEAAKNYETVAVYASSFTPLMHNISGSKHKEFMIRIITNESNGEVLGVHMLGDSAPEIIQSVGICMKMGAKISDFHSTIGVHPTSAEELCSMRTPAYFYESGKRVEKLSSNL
Experiment: Inhibition of recombinant Leishmania infantum trypanothione reductase using T[S]2 as substrate preincubated for 5 mins followed by substrate and NADPH addition measured for 1 hr
Non-standard residues stand in square brackets, D forms with d. Residues, ends and D or L forms follow the SMILES beside them. S5 = C=CCCC[C@](C)(N)C(=O)O; Nle = CCCC[C@H](N)C(=O)O
measure: pIC50
A value of pIC50 is the negative decimal logarithm of a concentration given in moles per litre.

[[record]]
compound = "CCCC[C@H](NC(=O)[C@H](CC(C)C)NC(=O)[C@H](CCCC)NC(=O)[C@H](CO)NC(=O)[C@@H](NC(=O)CNC(=O)[C@@H](NC(=O)[C@H](CO)NC(=O)[C@H](CCC(N)=O)NC(=O)[C@@H](NC(=O)[C@@H](NC(=O)[C@H](CC(C)C)NC(=O)[C@@H]1CCCN1C(C)=O)[C@@H](C)CC)[C@@H](C)CC)C(C)C)[C@@H](C)CC)C(N)=O"
assayvalue = 5.92

[[record]]
compound = "C=CCCC[C@](C)(NC(=O)[C@H](CO)NC(=O)[C@H](CCC(N)=O)NC(=O)[C@@H](NC(=O)[C@](C)(CCCC=C)NC(=O)[C@H](CCCCN)NC(=O)[C@@H]1CCCN1C(C)=O)[C@@H](C)CC)C(=O)NCC(=O)N[C@H](C(=O)N[C@@H](CO)C(=O)N[C@@H](CCCC)C(=O)N[C@@H](CCCCN)C(=O)N[C@@H](CCCC)C(N)=O)[C@@H](C)CC (Ac-PK[S5]IQS[S5]GIS[Nle]K[Nle]-NH2)"
assayvalue = 4.55


Could you now consider this next compound?
What does the record list as pIC50 for CCCC[C@@H](NC(=O)[C@H](CC(C)C)NC(=O)[C@@H](CCCC)NC(=O)[C@H](CO)NC(=O)[C@@H](NC(=O)CNC(=O)C1(C)CCCC=CCCC[C@@](C)(NC(=O)[C@@H](NC(=O)[C@H](CC(C)C)NC(=O)[C@@H]2CCCN2C(C)=O)[C@@H](C)CC)C(=O)N[C@@H](CCC(N)=O)C(=O)N[C@@H](CO)C(=O)N[C@@H](C(C)C)C(=O)N1)[C@@H](C)CC)C(N)=O (stereo partly drawn) ? 5.19

These entries and their values trace back to ChEMBL document CHEMBL4196062.
